# System: LNCAP
# assay: Cytotoxic activity, sulforhodamine B assay, LNCAP
# Assay type: cell-based, human
# recorded-conditions: LNCAP prostate cancer cells, 72 h
# Experimental: Media, serum and antibiotics for cell culture were from Lonza (Basel, Switzerland). […] Cell survival was assessed by optical density determination at 510 nm using a microplate reader. Figure 1 Effect of novel thiazolinylphenyl-piperazines (2a–c) on PCa cell viability. […] After 72 h, cell viability was assessed by sulforhodamine B assay. […]
measured-metric: pIC50
# pIC50: negative log10 of molar concentration; output just the value

[ask] I am curious: what pIC50 value has been reported for `c1cc(N2CCNCC2)ccc1C1=NCCS1` ?
[reply] 4.50
